# experiment: melting temperature; fluorescence melt of hairpins on a sequencing array, two-state fit, raised by 9.35 °C to match UV melts
# run_conditions: sodium 0.088 M
// returns rule not met unless Tm is strictly below 50 °C, in which case rule met

Reference set, count: 3
residue_sequence="GAGCTGCCGAAAGGCCTC (((..(((....))))))" discrete_label="rule met"
residue_sequence="GGTTTTGGAAACAAAATC (.(((((....))))).)" discrete_label="rule met"
residue_sequence="GTTTGCGAAAGCAAGAAC ((((((....)))..)))" discrete_label="rule met"

[ask] Tm strictly < 50 °C for this sequence? GGGAGCGAAAGCTAGCCC ((((((....)))..)))
[reply] rule met

[ask] Request: GGTAGACCGAAAGGTACC (((..(((....))))))
[reply] rule met

[ask] Request: GCGTTCCGAAAGGACCGC (((.(((....))).)))
[reply] rule not met

[ask] Request: GTGATCGGAAACGACCAC (((.(((....))).)))
[reply] rule met

[ask] Request: GGACGCGGAAACGTGTCC ((((.((....)).))))
[reply] rule not met

[ask] Request: GTTCGGCGAAAGCCAAC (((.(((....))))))
[reply] rule met

[ask] Request: GATTGCGGAAACACAATC (((((.(....).)))))
[reply] rule met

[ask] Request: GTGTCCGGAAACGGACGC (.(((((....))))).)
[reply] rule not met

[ask] Request: GATCAAGGAAACTTGACC (.(((((....))))).)
[reply] rule met

[ask] Request: GTGCAAGAAATTGCAC ((((((....))))))
[reply] rule not met

[ask] Request: GCTATCGAAAGATAAGC ((((((....))).)))
[reply] rule met

[ask] Request: GGCGATGGAAACACCGCC ((((.((....)).))))
[reply] rule not met

[ask] Request: GCGAATCTCGC ((((...))))
[reply] rule met

[ask] Request: GATCATCAGAATGATC ((((((....))))))
[reply] rule met

* * *

folding enthalpy by entry:
# experiment: folding enthalpy; higher = less favourable; fluorescence melt of hairpins on a sequencing array, two-state fit
# run_conditions: sodium 0.088 M

For orientation, consider the following solved cases.
residue_sequence="GTGCAACGAAAGTTACAC (((.(((....))).)))" readout_type="folding enthalpy" value_observed="-94.7 kJ/mol"
residue_sequence="GATCCGCCAGCGGATC ((((((....))))))" readout_type="folding enthalpy" value_observed="-188 kJ/mol"
residue_sequence="GATCAACTCTTGATC ((((((...))))))" readout_type="folding enthalpy" value_observed="-149 kJ/mol"
residue_sequence="GATGTCGGAAACGACATC (((((((....)))))))" readout_type="folding enthalpy" value_observed="-152 kJ/mol"
residue_sequence="GATCAGTTCGCTGATC ((((((....))))))" readout_type="folding enthalpy" value_observed="-188 kJ/mol"

[ask] Would you kindly share the measured folding enthalpy for GATCACTGCCGTGATC ((((((....)))))) ?
[reply] -186 kJ/mol

[ask] Request: GATCAGGTCCCTGATC ((((((....))))))
[reply] -163 kJ/mol

[ask] Request: CGCACGGAAACGTGAGCG ((((((....)))..)))
[reply] -62.1 kJ/mol
